Molecular target: Galectin-8 (Homo sapiens, UniProt O00214)
Sequence (O00214 whole entry): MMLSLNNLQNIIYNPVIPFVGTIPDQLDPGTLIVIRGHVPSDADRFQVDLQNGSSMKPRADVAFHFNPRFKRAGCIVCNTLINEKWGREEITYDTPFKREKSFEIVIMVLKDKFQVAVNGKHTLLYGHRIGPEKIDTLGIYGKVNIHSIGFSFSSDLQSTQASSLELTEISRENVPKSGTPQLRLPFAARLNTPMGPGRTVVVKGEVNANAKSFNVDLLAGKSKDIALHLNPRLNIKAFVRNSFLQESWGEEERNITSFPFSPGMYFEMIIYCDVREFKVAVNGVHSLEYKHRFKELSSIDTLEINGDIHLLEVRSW
Recorded Kd, one value per entry.
quantity_measured: Kd

INSERT INTO results (smi, reading) VALUES
  ('CS[C@@H]1O[C@H](CO)[C@H](O)[C@H](n2cc(-c3cccnc3)nn2)[C@H]1O', '670 µM'),
  ('CS[C@@H]1O[C@H](CO)[C@H](O)[C@H](n2cc(CO)nn2)[C@H]1O', '> 5000 µM'),
  ('COC(=O)c1cn([C@H]2[C@@H](O)[C@@H](CO)O[C@@H](SC)[C@@H]2O)nn1', '> 5000 µM'),
  ('CS[C@@H]1O[C@H](CO)[C@H](O)[C@H](n2nnc(C(N)=O)c2N)[C@H]1O', '> 5000 µM'),
  ('CO[C@@H]1O[C@H](CO)[C@@H](O[C@@H]2O[C@H](CO)[C@H](O)[C@H](NC(=O)c3ccc4ccccc4c3)[C@H]2O)[C@H](O)[C@H]1NC(C)=O', '> 100 µM'),
  ('O=C(NCc1ccccc1)c1cn([C@H]2[C@@H](O)[C@@H](CO)O[C@@H](S[C@@H]3O[C@H](CO)[C@H](O)[C@H](n4cc(C(=O)NCc5ccccc5)nn4)[C@H]3O)[C@@H]2O)nn1', '47 µM'),
  ('COCCNC(=O)c1cn([C@H]2[C@@H](O)[C@@H](CO)O[C@@H](S[C@@H]3O[C@H](CO)[C@H](O)[C@H](n4cc(C(=O)NCCOC)nn4)[C@H]3O)[C@@H]2O)nn1', '90 µM'),
  ('CO[C@@H]1O[C@H](CO)[C@@H](O[C@@H]2O[C@H](CO)[C@H](O)[C@H](O)[C@H]2O)[C@H](O)[C@H]1NC(C)=O', '1000 µM'),
  ('CCCCNC(=O)c1cn([C@H]2[C@@H](O)[C@@H](CO)O[C@@H](S[C@@H]3O[C@H](CO)[C@H](O)[C@H](n4cc(C(=O)NCCCC)nn4)[C@H]3O)[C@@H]2O)nn1', '58 µM'),
  ('CCCCNC(=O)c1cn([C@H]2[C@@H](O)[C@@H](CO)O[C@@H](SC)[C@@H]2O)nn1', '> 5000 µM'),
  ('CO[C@@H]1O[C@H](CO)[C@@H](O[C@@H]2O[C@H](CO)[C@H](O)[C@H](n3cc(C(=O)Nc4cccc5ccccc45)nn3)[C@H]2O)[C@H](O)[C@H]1NC(C)=O', '> 2000 µM'),
  ('CS[C@@H]1O[C@H](CO)[C@H](O)[C@H](n2cc(C(=O)NCCCO)nn2)[C@H]1O', '> 5000 µM'),
  ('CS[C@@H]1O[C@H](CO)[C@H](O)[C@H](n2cc(-c3ccccc3)nn2)[C@H]1O', '> 5000 µM'),
  ('CS[C@@H]1O[C@H](CO)[C@H](O)[C@H](n2cc(-c3cccc4ccccc34)nn2)[C@H]1O', '> 5000 µM');
